# System: S. pneumoniae
# protocol_text: Broth microdilution MIC (Example 11)
# test_parameters: Streptococcus pneumoniae, S. pneumoniae MMX 5440; Mem^R SXT^R CC^R Ery^R Pen^R
reported_property: MIC (µg/mL)

[[record]]
compound = "C[C@@H](O)[C@H]1C(=O)N2C(C(=O)O)=C(S[C@@H]3CN[C@H](C(=O)N(C)C)C3)[C@H](C)[C@H]12 [Meropenem, reference compound]"
result_unit = "µg/mL"
inequality_sign = "="
observed_result = 1

[[record]]
compound = "CC1(C)S[C@@H]2[C@H](NC(=O)Cc3ccccc3)C(=O)N2[C@H]1C(=O)O"
result_unit = "µg/mL"
inequality_sign = "="
observed_result = 4

[[record]]
compound = "CC[C@H]1OC(=O)[C@H](C)[C@@H](O[C@H]2C[C@@](C)(OC)[C@@H](O)[C@H](C)O2)[C@H](C)[C@@H](O[C@@H]2O[C@H](C)C[C@H](N(C)C)[C@H]2O)[C@](C)(O)C[C@@H](C)C(=O)[C@H](C)[C@@H](O)[C@]1(C)O"
result_unit = "µg/mL"
inequality_sign = ">"
observed_result = 8

[[record]]
compound = "C[C@H]1COc2c(N3CCN(C)CC3)c(F)cc3c(=O)c(C(=O)O)cn1c23 [Levofloxacin, reference compound]"
result_unit = "µg/mL"
inequality_sign = "="
observed_result = 1

[[record]]
compound = "CN[C@H](CC(C)C)C(=O)N[C@H]1C(=O)N[C@@H](CC(N)=O)C(=O)N[C@H]2C(=O)N[C@H]3C(=O)N[C@H](C(=O)N[C@H](C(=O)O)c4cc(O)cc(O)c4-c4cc3ccc4O)[C@H](O)c3ccc(c(Cl)c3)Oc3cc2cc(c3O[C@@H]2O[C@H](CO)[C@@H](O)[C@H](O)[C@H]2O[C@H]2C[C@](C)(N)[C@H](O)[C@H](C)O2)Oc2ccc(cc2Cl)[C@H]1O"
result_unit = "µg/mL"
inequality_sign = "="
observed_result = 0.25

[[record]]
compound = "CC(S)C(C)S.[Bi] (stereo not shown)"
result_unit = "µg/mL"
inequality_sign = "="
observed_result = 0.5

[[record]]
compound = "CCC[C@@H]1C[C@@H](C(=O)N[C@@H]([C@H]2O[C@H](SC)[C@H](O)[C@@H](O)[C@H]2O)[C@H](C)Cl)N(C)C1"
result_unit = "µg/mL"
inequality_sign = ">"
observed_result = 8

